The values you see were collected from paper PMC4467139.

# assay_procedure: Pharmacokinetics study of garcinol in mice
# Format: in vivo
# experimental_conditions: nude, ip; mouse serum, 0.5 mg/kg i.p.; read-out: peak serum concentration (Cmax)
measurement_name: Cmax (nM)
Report as a plain number; the unit nM is understood.

Kindly note the recorded Cmax for `C=C(C)[C@@H](CC=C(C)C)C[C@@]12C[C@@H](CC=C(C)C)C(C)(C)[C@@](CC=C(C)C)(C(=O)C(C(=O)c3ccc(O)c(O)c3)=C1O)C2=O` , which is 1830

====

# assay_procedure: Pharmacokinetics study of garcinol in mice
# Type: in vivo
# experimental_conditions: nude, ip; mouse serum, 2 mg/kg i.p.; read-out: peak serum concentration (Cmax)
measurement_name: Cmax (µM)
Report as a plain number; the unit µM is understood.

Kindly note the recorded Cmax for `C=C(C)[C@@H](CC=C(C)C)C[C@@]12C[C@@H](CC=C(C)C)C(C)(C)[C@@](CC=C(C)C)(C(=O)C(C(=O)c3ccc(O)c(O)c3)=C1O)C2=O` , which is 6.64
